Just for reference, paper PMC8006131 is where these values come from.

biological target: I6R1/K28H/Q32H GB1 (Streptococcus sp. group G, UniProt P06654, I232C/K254H/Q258H); construct: MTSL nitroxide spin label on Cys6 (R1 side chain); made in house; test: Cu^II-nitroxide RIDME pseudotitration (pulse dipolar EPR); type: binding; details: pH 8.4; 2 μM protein; read-out: fitted dissociation constant (bivariate fit)
pKd: −log10 of the molar value.

- compound: "O=C([O-])CN(CC(=O)[O-])CC(=O)[O-].[Cu+2] [Cu^II–NTA, Cu^II-nitrilotriacetic acid]"
  assayed.system: "I6R1/K28H/Q32H GB1 (Streptococcus sp. group G, UniProt P06654, I232C/K254H/Q258H)"
  pKd: 7.04
